List of pIC50 values.
# ASSAY_INFO: Inhibitory activity of compound was evaluated against thrombin-fibrinogen (Fg)
pIC50: −log10 of the molar value.

# COMPOUND, MEASUREMENT_KIND, REPORTED_VALUE
data = [
    ("CCCCCCCCNC(=O)C(Cc1ccc(OCc2ccncc2)cc1)NC(=O)[C@H]1CC[C@H](CN)CC1 (stereo partly specified)", "pIC50", "< 4.00"),
]

Query string: I would be grateful if you could share the reported pIC50 for NC[C@H]1CC[C@H](C(=O)NC(Cc2ccc(Oc3ncccn3)cc2)C(=O)Nc2cccc(C(=O)O)c2)CC1 (stereo partly specified) .
Result string: < 3.00

Query string: For the compound shown here, CCCCCCCCNC(=O)C(Cc1ccc(OC(=O)OCc2ccccc2Br)cc1)NC(=O)[C@H]1CC[C@H](CN)CC1 (stereo partly specified) , give the reported pIC50.
Result string: < 4.60
